Listed molecules paired with reported IC50
# STUDY TARGET: Nitric oxide synthase 3 (Homo sapiens, UniProt P29474)
# Sequence (P29474 whole entry, canonical isoform): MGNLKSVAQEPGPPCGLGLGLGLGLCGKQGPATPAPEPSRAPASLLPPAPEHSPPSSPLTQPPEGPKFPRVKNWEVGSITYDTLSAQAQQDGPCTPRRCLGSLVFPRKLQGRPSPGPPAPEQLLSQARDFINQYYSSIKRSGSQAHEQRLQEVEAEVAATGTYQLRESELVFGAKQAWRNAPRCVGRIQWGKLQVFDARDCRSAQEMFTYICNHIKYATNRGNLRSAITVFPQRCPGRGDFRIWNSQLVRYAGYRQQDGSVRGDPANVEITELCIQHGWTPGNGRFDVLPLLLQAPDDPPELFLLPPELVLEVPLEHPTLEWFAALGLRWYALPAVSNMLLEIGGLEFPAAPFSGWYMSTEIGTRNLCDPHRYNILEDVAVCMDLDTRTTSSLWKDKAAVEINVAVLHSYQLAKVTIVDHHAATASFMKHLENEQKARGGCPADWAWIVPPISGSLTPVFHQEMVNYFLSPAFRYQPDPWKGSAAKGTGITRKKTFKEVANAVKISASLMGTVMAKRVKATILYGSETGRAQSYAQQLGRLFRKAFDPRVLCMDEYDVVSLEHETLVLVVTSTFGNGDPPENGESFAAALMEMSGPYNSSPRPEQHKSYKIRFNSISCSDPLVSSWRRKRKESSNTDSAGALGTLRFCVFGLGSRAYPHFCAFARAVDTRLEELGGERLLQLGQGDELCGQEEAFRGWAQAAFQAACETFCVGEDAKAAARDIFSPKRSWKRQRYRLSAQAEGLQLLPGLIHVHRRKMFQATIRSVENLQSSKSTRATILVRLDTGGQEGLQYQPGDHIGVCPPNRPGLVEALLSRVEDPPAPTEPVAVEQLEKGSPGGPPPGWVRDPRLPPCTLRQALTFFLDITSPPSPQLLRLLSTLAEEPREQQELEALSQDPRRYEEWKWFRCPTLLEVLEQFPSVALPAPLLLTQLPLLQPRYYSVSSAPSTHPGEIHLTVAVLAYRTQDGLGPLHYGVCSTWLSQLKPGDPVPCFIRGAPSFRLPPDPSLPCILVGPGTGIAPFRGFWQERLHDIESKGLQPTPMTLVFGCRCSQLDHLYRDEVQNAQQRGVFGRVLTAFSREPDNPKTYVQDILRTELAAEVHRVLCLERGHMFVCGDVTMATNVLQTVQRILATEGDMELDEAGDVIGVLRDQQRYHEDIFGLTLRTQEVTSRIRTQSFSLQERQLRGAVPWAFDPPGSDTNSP
# TEST SUMMARY: Compound was evaluated for the Inhibition of endothelial isoform of Endothelial nitric oxide synthase (eNOS)enzyme
The reply should be a number in mM, with the unit left off.

CC(=N)NCCCC[C@H](N)C(=O)O	0.138

Now consider a different molecule.
QUERY: Given the entry CC(=N)NCCCC[C@H](N)[C@@H](O)CO , what IC50 was observed with Nitric oxide synthase 3 (Homo sapiens, UniProt P29474)?
RESULT: 8.42

====

# STUDY TARGET: Nitric oxide synthase, inducible (Homo sapiens)
# Sequence (P35228 whole entry, canonical isoform): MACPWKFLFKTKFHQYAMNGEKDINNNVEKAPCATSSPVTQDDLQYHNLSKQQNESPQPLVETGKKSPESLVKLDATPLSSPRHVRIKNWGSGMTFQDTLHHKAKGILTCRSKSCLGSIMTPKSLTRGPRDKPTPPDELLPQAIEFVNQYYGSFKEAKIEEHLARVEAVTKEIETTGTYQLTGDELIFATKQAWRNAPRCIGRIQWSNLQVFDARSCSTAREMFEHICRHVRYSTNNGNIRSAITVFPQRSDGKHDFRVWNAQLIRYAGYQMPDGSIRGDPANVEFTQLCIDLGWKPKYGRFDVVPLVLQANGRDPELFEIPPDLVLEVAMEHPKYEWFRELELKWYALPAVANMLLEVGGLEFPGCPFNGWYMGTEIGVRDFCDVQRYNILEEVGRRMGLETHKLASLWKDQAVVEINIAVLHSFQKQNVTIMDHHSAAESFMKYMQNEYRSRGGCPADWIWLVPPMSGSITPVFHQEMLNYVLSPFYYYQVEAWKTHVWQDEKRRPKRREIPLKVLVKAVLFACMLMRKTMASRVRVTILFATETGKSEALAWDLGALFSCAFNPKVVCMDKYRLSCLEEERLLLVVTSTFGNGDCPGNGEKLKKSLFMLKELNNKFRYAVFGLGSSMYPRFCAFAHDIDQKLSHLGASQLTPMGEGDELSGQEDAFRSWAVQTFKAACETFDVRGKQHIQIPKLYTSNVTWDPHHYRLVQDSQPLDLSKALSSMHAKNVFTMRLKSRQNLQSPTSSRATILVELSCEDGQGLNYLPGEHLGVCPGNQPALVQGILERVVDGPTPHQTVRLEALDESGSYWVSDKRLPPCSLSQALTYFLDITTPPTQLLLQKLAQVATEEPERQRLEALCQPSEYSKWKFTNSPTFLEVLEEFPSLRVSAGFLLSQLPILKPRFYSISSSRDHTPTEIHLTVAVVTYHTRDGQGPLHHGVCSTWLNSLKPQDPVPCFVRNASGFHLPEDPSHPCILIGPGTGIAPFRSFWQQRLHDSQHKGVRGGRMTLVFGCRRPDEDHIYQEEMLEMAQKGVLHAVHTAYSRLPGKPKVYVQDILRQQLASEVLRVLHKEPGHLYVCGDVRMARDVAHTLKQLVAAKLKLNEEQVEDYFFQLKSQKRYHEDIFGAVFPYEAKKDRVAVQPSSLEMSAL
# TEST SUMMARY: Compound was evaluated for the Inhibition of induced isoform of Inducible nitric oxide synthase
PROPERTY: pIC50
Hey, just a heads up that pIC50 is the negative log base 10 of the concentration in molar.

CC(=N)NCCCC[C@H](N)C(=O)O	5.30

QUERY: Dear colleague, I am looking for the recorded pIC50 of the following molecule: CC(=N)NCCCC[C@H](N)[C@@H](O)CO
RESULT: 4.92
